I'd be grateful if you could share measured normalized growth for these entries.
# measurementProtocol: chemical genetic growth profiling, strain panel (AID 1159580);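 further: tested at 20 µM; growth read once vehicle control cultures reached saturation at 30 °C; 1 = growth at the plate median or of vehicle wells; lower values mean less growth of the strain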
# assaySetup: S. cerevisiae deletion strains, growth OD, locus YHR200W, strain rpn10, stronger effect = lower value
Out of some 5,500 compounds screened, about 2,000 (36%) were called active. Not shown: some 18% with an inconclusive outcome. The list shows a part of the results.
Give bare numbers.

molecule	observedValue
CC(=O)O[C@@H]1CC2C(C)(C)C(=O)C3OC3[C@]2(C)C2CC[C@@]3(C)[C@H](c4ccoc4)OC(=O)C4OC43[C@@]21C (some centres not stated)	1
CC(=O)O[C@@H]1CC2C(C)(C)[C@@H](O)CC[C@]2(C)C2CC[C@@]3(C)[C@H](c4ccoc4)OC(=O)[C@H]4O[C@]43[C@@]21C (some centres not stated)	1.01

Please supply normalized growth for each of the following items, keeping them in order.
1. CC(=O)O[C@@H]1CC2C(C)(C)[C@H](O)CC[C@]2(C)C2CC[C@@]3(C)[C@H](c4ccoc4)OC(=O)C4OC43[C@@]21C (some centres not stated)
2. CC(=O)OC1CC(OC(C)=O)C2(C)C(CC(OC(C)=O)C3(C)C2CCC2(C)C(c4ccoc4)OC(=O)C4OC423)C1(C)C (configuration not stated)
3. C[C@]12CCC3C(CC[C@H]4C[C@@H](O)CC[C@]34C)C1CC[C@@H]2O (some centres not stated)
4. C1N2CN3CN1CN(C2)C3
5. CCN1C[C@@]2(COC)C3[C@@H](OC)[C@H]4[C@@H]1[C@]3(C(OC)C[C@H]2O)C1C[C@@]2(O)[C@H](OC(=O)c3ccccc3)C1[C@]4(OC(C)=O)[C@@H](O)[C@@H]2OC (some centres not stated)

0.996
0.99
0.985
0.975
1.04

====

# measurementProtocol: chemical genetic growth profiling, strain panel (AID 1159580)
# assaySetup: S. cerevisiae deletion strains, growth OD, locus YDR334W, strain swr1, stronger effect = lower value
About 2,000 (36%) of roughly 5,500 compounds were called active. About 18% were inconclusive and are not listed. The list shows a part of the results.
I'd be grateful if you could share measured normalized growth for these entries.
Numbers only.

molecule	readoutName	observedValue
CCC(C)C(=O)c1c(O)c(C)c2oc3c(C)c(O)c(C(=O)C(C)CC)c(O)c3c2c1O (stereo not given)	normalized growth	1
O=c1cccc2n1CC1CC2CN2CCCC[C@@H]12 (stereo not given in full)	normalized growth	0.978
Clc1ccccc1CN1CCc2sccc2C1	normalized growth	1.01

Please supply normalized growth for each of the following items, keeping them in order.
1. CCCCCCCCCCCCCC(=O)OC1C(C)C2(O)C(C=C(CO)CC3(O)C(=O)C(C)=CC32)C2C(C)(C)C12OC(C)=O (stereo not given)
2. COC(=O)[C@H](c1ccccc1Cl)N1CCc2sccc2C1
3. CC(=O)Oc1c2c(c3c(c1CC=C(C)C)O[C@]14C(=C[C@@H]5CC1C(C)(C)OC4(C/C=C(\C)C(=O)O)C5=O)C3=O)OC(C)(CCC=C(C)C)C=C2 (stereo not given in full)
4. Cc1nnc(NS(=O)(=O)c2ccc(N)cc2)s1
5. C[C@H]1C[C@@H](O)[C@]2(O)[C@@]13CC(=O)OC[C@@]2(C)[C@](C)(O)C(=O)C3

0.989
0.995
0.976
0.987
1.03

Please supply normalized growth for each of the following items, keeping them in order.
1. CCCn1c(=O)c2[nH]c(C3CCCC3)nc2n(CCC)c1=O
2. O=C1CCCN1CC#CCN1CCCC1

1. 0.988
2. 1.02

====

# measurementProtocol: chemical genetic growth profiling, strain panel (AID 1159580)
# assaySetup: S. cerevisiae deletion strains, growth OD, locus YPL240C, strain hsp82, stronger effect = lower value
Out of some 5,500 compounds screened, about 2,000 (36%) were called active. Not shown: some 18% with an inconclusive outcome. The list shows a part of the results.
readoutName: normalized growth
Give bare numbers.

Please supply normalized growth for each of the following items, keeping them in order.
1. CN[C@@H]1C(OC2[C@H](O[C@H]3[C@H](O)[C@@H](O)[C@H](N=C(N)N)[C@@H](O)[C@@H]3N=C(N)N)OC(C)[C@]2(O)CO)OC(CO)C(O)C1O (stereo partly specified)
2. O=NN(CCCl)C(=O)NCCCl
3. CCN1C[C@@]2(COC)C3[C@@H](OC)[C@H]4[C@@H]1[C@]3(C(OC)C[C@H]2O)C1C[C@@]2(O)[C@H](OC(=O)c3ccccc3)C1[C@]4(OC(C)=O)[C@@H](O)[C@@H]2OC (stereo partly specified)

1. 0.993
2. 0.976
3. 1.01

====

I'd be grateful if you could share measured normalized growth for these entries.
# measurementProtocol: chemical genetic growth profiling, strain panel (AID 1159580)
# assaySetup: S. cerevisiae deletion strains, growth OD, locus YNL322C, strain KRE1, stronger effect = lower value
The campaign covered roughly 5,500 compounds. About 2,000 (36%) were called active. About 18% were inconclusive and are not listed. Some of the results follow.
Give bare numbers.

compound	normalized growth
COc1cc2c(cc1OC)C1(O)C(=O)c3ccc(O)c(C(=O)O)c3OC1CO2 (stereo not given)	0.988
C=NC(C(=O)NC1C(=O)N2C1SC(C)(C)C2C(=O)O)c1ccccc1 (stereo not given)	1.01
COC(=O)[C@@H]1OC(=O)C2OC23[C@@]1(C)CCC1[C@]2(C)C(C[C@@H](O)[C@]13C)C(C)(C)[C@H](OC(C)=O)C[C@@H]2OC(C)=O (stereo not given in full)	1.02
C[C@]12C=CC(=O)C=C1CCC1C2[C@@H](O)C[C@@]2(C)C1CC[C@]2(O)C(=O)CO (stereo not given in full)	0.993

Alright, here's another compound for you.
So what's the measured normalized growth for this one? C1N2CN3CN1CN(C2)C3
0.982

====

I'd be grateful if you could share measured normalized growth for these entries.
# measurementProtocol: chemical genetic growth profiling, strain panel (AID 1159580);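 further: tested at 20 µM; growth read once vehicle control cultures reached saturation at 30 °C; 1 = growth at the plate median or of vehicle wells; lower values mean less growth of the strain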
# assaySetup: S. cerevisiae deletion strains, growth OD, locus YLL026W, stronger effect = lower value
Out of some 5,500 compounds screened, about 2,000 (36%) were called active. Another 18% or so got no clear call; they are omitted. Some of the results follow. Where a SMILES comes first, the peptide text is derived from it.
One number for each entry.

Guide cases for normalized growth, answers given:
molecule	readoutName	observedValue
CC(=O)N[C@@H](CC(=O)O)C(=O)N[C@@H](CCC(=O)O)C(=O)O (Ac-Asp-Glu-OH)	normalized growth	1
NC(=O)CS(=O)C(c1ccccc1)c1ccccc1 (centres undefined)	normalized growth	1
CC(=O)O[C@]1(C)CC[C@@]23CC1C(C)(C)[C@@H]2CC[C@H]3C	normalized growth	0.971

Please supply normalized growth for each of the following items, keeping them in order.
1. COc1ccc(CCC(=O)c2c(O)cc(O[C@@H]3O[C@H](CO)C(O)[C@H](O)C3O[C@@H]3O[C@@H](C)[C@H](O)[C@@H](O)[C@H]3O)cc2O)cc1O (some centres undefined)
2. C[C@@H]1CC[C@H]2C(C)(C)C3CC12CC[C@@]3(C)O (some centres undefined)
3. CC(=O)N[C@@H](CCC(=O)O)C(=O)O
4. COC(=O)[C@@H]1OC(=O)C2OC23[C@@]1(C)CCC1[C@]2(C)C(C[C@@H](O)[C@]13C)C(C)(C)[C@H](OC(C)=O)C[C@@H]2OC(C)=O (some centres undefined)
5. NC1(C(=O)O)CCCC1
6. CC(C)=CC1C(C(=O)OCc2cccc(Oc3ccccc3)c2)C1(C)C (centres undefined)

1.02
0.747
1.01
0.998
1.01
1.01

====

# measurementProtocol: chemical genetic growth profiling, strain panel (AID 1159580);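 further: tested at 20 µM; growth read once vehicle control cultures reached saturation at 30 °C; 1 = growth at the plate median or of vehicle wells; lower values mean less growth of the strain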
# assaySetup: S. cerevisiae deletion strains, growth OD, locus YDR137W, strain rgp1, stronger effect = lower value
About 2,000 (36%) of roughly 5,500 compounds were called active. Inconclusive results (about 18%) are left out. Some of the results follow.
I'd be grateful if you could share measured normalized growth for these entries.
Numbers only.

molecule	observedValue
COc1ccc2c(c1)OCC(Cc1ccc(O)c(OC)c1)C2=O (stereo not drawn)	0.922
CCCNC(=O)NS(=O)(=O)c1ccc(Cl)cc1	0.994

Alright, here's another molecule for you.
So what's the measured normalized growth for this one? COc1ccc2c(c1)OCC(Cc1ccc(OC)c(O)c1)C2=O (stereo not drawn)
0.974

====

# measurementProtocol: chemical genetic growth profiling, strain panel (AID 1159580);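 further: tested at 20 µM; growth read once vehicle control cultures reached saturation at 30 °C; 1 = growth at the plate median or of vehicle wells; lower values mean less growth of the strain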
# assaySetup: S. cerevisiae deletion strains, growth OD, locus YDR159W, strain sac3, stronger effect = lower value
The whole screen tested about 5,500 compounds, of which about 2,000 (36%) were called active. Roughly 18% stayed inconclusive and do not appear here. The list shows a part of the results.
I'd be grateful if you could share measured normalized growth for these entries.

Please supply normalized growth for each of the following items, keeping them in order.
1. COP(=S)(OC)Oc1ccc([N+](=O)[O-])cc1
2. Clc1ccc(C(c2ccccc2Cl)C(Cl)Cl)cc1 (stereo unspecified)
3. NC(N)=NCCN1CCCCCCC1
4. O=c1cccc2n1CC1CC2CN2CCCC[C@@H]12 (stereo partly specified)
5. CC(=O)Oc1c2c(c3c(c1CC=C(C)C)O[C@]14C(=C[C@@H]5CC1C(C)(C)OC4(C/C=C(\C)C(=O)O)C5=O)C3=O)OC(C)(CCC=C(C)C)C=C2 (stereo partly specified)
6. NC(N)=NCCCCN=C(N)N
7. NCCCNCCSP(=O)(O)O
8. COc1cc(NS(C)(=O)=O)ccc1Cc1c2ccccc2nc2ccccc12

0.981 (inactive)
1 (inactive)
1.05 (inactive)
0.938 (inactive)
0.87 (inactive)
1 (inactive)
0.98 (inactive)
0.947 (inactive)

Attribution: PubChem BioAssay AID1159580
